Test system: hydrilla PDS Arg^304 → Cysteine
Experiment: Cross resistance to bleaching herbicides, in vitro PDS inhibition, non-His-tagged (Table 2)
Assay type: biochemical, Hydrilla verticillata
Settings: Cysteine at 304 relative to Arginine; Table 2
In this section, each of the compounds is paired with its reported R/S.
Response field accepts a number only; no unit should be typed.

Consider the worked cases shown below.
compound	system.name	endpoint.result
O=C(Nc1ccc(F)cc1F)c1cccnc1Oc1cccc(C(F)(F)F)c1	hydrilla PDS Arg^304 → Cysteine	0.4
CNC1=C(c2cccc(C(F)(F)F)c2)C(=O)C(c2ccccc2)O1 (stereo not drawn)	hydrilla PDS Arg^304 → Cysteine	1.9
CNc1cnn(-c2cccc(C(F)(F)F)c2)c(=O)c1Cl	hydrilla PDS Arg^304 → Cysteine	28.8
CCC(Oc1ccc(F)c(C(F)(F)F)c1)C(=O)NCc1ccccc1 (stereo not drawn)	hydrilla PDS Arg^304 → Cysteine	0.8

## Task Would you mind telling me what R/S value was observed for O=C(Nc1ccc(F)cc1)c1cccc(Oc2cccc(C(F)(F)F)c2)n1 ?
## Result 0.4

## Task Would you mind telling me what R/S value was observed for O=C1C(Cl)C(CCl)CN1c1cccc(C(F)(F)F)c1 (stereo not drawn) ?
## Result 3.6

====

Target: hydrilla PDS position 304 Arginine (wildtype) (Hydrilla verticillata, UniProt Q66PY0)
Sequence (Q66PY0 1-580): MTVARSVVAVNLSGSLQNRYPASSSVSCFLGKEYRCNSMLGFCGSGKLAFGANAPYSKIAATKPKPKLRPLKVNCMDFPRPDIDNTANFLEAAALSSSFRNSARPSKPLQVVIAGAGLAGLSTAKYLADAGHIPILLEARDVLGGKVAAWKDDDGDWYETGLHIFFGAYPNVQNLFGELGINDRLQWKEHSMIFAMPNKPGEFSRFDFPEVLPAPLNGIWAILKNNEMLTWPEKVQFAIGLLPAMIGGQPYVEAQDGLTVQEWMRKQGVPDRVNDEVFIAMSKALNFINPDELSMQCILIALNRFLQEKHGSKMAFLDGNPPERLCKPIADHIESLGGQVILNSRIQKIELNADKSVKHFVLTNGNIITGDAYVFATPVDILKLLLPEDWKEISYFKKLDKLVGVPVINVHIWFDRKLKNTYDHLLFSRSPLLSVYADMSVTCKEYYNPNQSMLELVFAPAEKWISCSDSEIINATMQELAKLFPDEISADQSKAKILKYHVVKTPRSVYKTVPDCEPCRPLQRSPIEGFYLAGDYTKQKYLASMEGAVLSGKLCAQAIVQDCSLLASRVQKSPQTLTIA
Assay: Cross resistance to bleaching herbicides, in vitro PDS inhibition, non-His-tagged (Table 2)
Conditions: Arginine at 304; construct in frame with LacZalpha-ccdB, non-His-tagged; read-out: I50
In this section, each of the molecules is paired with its reported pIC50.
// field semantics: pIC50 = negative decimal log of concentration (mol/L)

Consider the worked cases shown below.
molecule	pIC50
O=C(Nc1ccc(F)cc1)c1cccc(Oc2cccc(C(F)(F)F)c2)n1 [Piconilafen, Picolinafen]	5.25
O=C1C(Cl)C(CCl)CN1c1cccc(C(F)(F)F)c1 (stereo not drawn) [Fluorochloridone]	4.91
CCC(Oc1ccc(F)c(C(F)(F)F)c1)C(=O)NCc1ccccc1 (stereo not drawn) [Beflubutamid]	5.37
CNC1=C(c2cccc(C(F)(F)F)c2)C(=O)C(c2ccccc2)O1 (stereo not drawn) [Flurtamone]	5.55
O=C(Nc1ccc(F)cc1F)c1cccnc1Oc1cccc(C(F)(F)F)c1 [Diflufenican]	5.24

Next molecule, pIC50 to be filled in.
## Task Would you mind telling me what pIC50 value was observed for CNc1cnn(-c2cccc(C(F)(F)F)c2)c(=O)c1Cl [Norflurazon] ?
## Result 5.51

====

In this section, each of the molecules is paired with its reported R/S.
System: hydrilla PDS Arg^304 → Threonine, His-tagged
Assay: Cross-resistance testing, His-tagged column-purified PDS (Table 2A)
Format: biochemical, Hydrilla verticillata
Conditions: Threonine at 304 relative to Arginine; Table 2A
Response field accepts a number only; no unit should be typed.

Consider the worked cases shown below.
molecule	endpoint.result
CCC(Oc1ccc(F)c(C(F)(F)F)c1)C(=O)NCc1ccccc1 (stereo not drawn) [Beflubutamid]	1.5
CNC1=C(c2cccc(C(F)(F)F)c2)C(=O)C(c2ccccc2)O1 (stereo not drawn) [Flurtamone]	5.9
CNc1cnn(-c2cccc(C(F)(F)F)c2)c(=O)c1Cl [Norflurazon]	30.0
O=C1C(Cl)C(CCl)CN1c1cccc(C(F)(F)F)c1 (stereo not drawn) [Fluorochloridone]	1.6
O=C(Nc1ccc(F)cc1)c1cccc(Oc2cccc(C(F)(F)F)c2)n1 [Piconilafen, Picolinafen]	0.2

Next molecule, R/S to be filled in.
## Task Query the reported R/S for hydrilla PDS Arg^304 → Threonine, His-tagged; item: O=C(Nc1ccc(F)cc1F)c1cccnc1Oc1cccc(C(F)(F)F)c1 [Diflufenican]
## Result 1.0
